# assay.target: T1, human IL-18BP (Homo sapiens, UniProt O95998)
# T1 construct: His
# T1 sequence (O95998 31-194): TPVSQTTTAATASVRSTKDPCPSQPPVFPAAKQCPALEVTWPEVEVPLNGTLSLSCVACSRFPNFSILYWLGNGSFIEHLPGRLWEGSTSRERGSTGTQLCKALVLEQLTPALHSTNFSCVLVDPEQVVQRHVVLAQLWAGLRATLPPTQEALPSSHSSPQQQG
# experiment.notes: IL-18BP binding alphaLISA assay (Example 4, used in Example 22B)
# experimental.parameters: IL-18BP AlphaLISA
pKd: −log10 of the molar value.
measured.attribute: pKd

Some solved cases for reference:
INSERT INTO assay_data (molecule, value_reported) VALUES
  ('C147: IL-18 polypeptide: V11I, C38A, K53A, D54A, C76A, C127A (protein) YFGKLESKLSIIRNLNDQVLFIDQGNRPLFEDMTDSDARDNAPRTIFIISMYAASQPRGMAVTISVKCEKISTLSAENKIISFKEMNPPDNIKDTKSDIIFFQRSVPGHDNKMQFESSSYEGYFLAAEKERDLFKLILKKEDELGDRSIMFTVQNED', 7.59),
  ('C177: IL-18 polypeptide: E6K, V11I, C38A, I49R, K53A, T63A, C76A, C127A (protein) YFGKLKSKLSIIRNLNDQVLFIDQGNRPLFEDMTDSDARDNAPRTIFIRSMYADSQPRGMAVAISVKCEKISTLSAENKIISFKEMNPPDNIKDTKSDIIFFQRSVPGHDNKMQFESSSYEGYFLAAEKERDLFKLILKKEDELGDRSIMFTVQNED', '< 5.55');

Lab note: next molecule to report on.
Q. Given the molecule C181: IL-18 polypeptide: E6K, V11I, C38A, K53A, T63A, C76A, C127A, V153E (protein) YFGKLKSKLSIIRNLNDQVLFIDQGNRPLFEDMTDSDARDNAPRTIFIISMYADSQPRGMAVAISVKCEKISTLSAENKIISFKEMNPPDNIKDTKSDIIFFQRSVPGHDNKMQFESSSYEGYFLAAEKERDLFKLILKKEDELGDRSIMFTEQNED , what is its reported pKd?
A. < 5.55
